Data export: IC50 values recorded with PI3K α (Homo sapiens (Human), UniProt P42336).
Sequence (P42336 whole entry): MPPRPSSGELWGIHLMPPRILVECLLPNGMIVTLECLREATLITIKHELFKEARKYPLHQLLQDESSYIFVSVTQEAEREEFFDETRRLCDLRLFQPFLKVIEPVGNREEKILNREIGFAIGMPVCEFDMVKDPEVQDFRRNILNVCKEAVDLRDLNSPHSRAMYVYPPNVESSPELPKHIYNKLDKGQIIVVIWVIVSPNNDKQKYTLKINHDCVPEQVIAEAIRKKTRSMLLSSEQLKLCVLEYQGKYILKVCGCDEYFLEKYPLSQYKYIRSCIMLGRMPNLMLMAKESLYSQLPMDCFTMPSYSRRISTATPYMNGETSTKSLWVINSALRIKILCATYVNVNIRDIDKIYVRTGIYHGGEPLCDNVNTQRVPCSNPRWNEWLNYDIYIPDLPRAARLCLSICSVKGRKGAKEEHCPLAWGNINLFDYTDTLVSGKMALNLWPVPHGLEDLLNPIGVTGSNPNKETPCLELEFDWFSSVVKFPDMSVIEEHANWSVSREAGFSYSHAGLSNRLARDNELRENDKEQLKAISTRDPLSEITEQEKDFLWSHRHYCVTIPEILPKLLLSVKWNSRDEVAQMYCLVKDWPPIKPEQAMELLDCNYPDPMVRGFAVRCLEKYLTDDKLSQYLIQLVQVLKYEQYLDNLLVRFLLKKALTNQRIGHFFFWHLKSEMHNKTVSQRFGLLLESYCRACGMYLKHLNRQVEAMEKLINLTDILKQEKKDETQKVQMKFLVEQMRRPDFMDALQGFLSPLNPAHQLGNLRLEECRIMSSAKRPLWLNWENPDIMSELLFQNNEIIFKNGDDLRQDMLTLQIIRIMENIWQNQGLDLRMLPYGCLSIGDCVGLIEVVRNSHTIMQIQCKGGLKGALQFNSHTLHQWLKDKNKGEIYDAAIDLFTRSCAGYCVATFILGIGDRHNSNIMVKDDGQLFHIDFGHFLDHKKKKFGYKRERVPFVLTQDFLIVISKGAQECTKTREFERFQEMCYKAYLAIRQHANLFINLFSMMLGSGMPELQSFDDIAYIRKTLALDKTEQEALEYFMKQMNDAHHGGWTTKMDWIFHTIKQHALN
Sequence (P27986 whole entry partner): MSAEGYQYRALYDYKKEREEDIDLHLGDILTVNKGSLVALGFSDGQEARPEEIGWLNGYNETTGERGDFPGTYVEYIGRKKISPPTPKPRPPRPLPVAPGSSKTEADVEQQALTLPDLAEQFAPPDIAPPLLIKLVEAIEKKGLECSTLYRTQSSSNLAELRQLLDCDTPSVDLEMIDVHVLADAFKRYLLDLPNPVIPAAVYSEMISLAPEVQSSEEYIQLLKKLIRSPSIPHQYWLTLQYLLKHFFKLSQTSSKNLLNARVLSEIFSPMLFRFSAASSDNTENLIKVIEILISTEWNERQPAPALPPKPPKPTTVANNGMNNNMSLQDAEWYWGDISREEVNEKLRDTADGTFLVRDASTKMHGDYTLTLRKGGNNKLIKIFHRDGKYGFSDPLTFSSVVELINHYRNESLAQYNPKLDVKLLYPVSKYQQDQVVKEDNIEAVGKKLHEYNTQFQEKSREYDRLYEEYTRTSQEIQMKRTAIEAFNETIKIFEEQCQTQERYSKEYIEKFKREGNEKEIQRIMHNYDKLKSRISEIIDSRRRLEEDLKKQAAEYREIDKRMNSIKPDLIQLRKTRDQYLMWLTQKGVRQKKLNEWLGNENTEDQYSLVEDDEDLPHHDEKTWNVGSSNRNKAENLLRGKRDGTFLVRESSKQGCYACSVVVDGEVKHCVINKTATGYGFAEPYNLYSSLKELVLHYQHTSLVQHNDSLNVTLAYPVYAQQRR

query: Give IC50 (PI3K α (Homo sapiens (Human), UniProt P42336)) of the following compound: `C[C@H]1CN(c2cnc3ccc(-c4ccc5oc(N)nc5c4)nc3c2)CCN1`
result: < 100 nM

query: What value of IC50 on PI3K α (Homo sapiens (Human), UniProt P42336) does `Nc1nc2cc(-c3ccc4ncc(C(=O)N5CCCCC5)n4c3)ccc2o1` have?
result: < 1000 nM

---

Target: PI3K α (Homo sapiens (Human), UniProt P42336)
Assay: PI 3-Kinase (human) HTRF assay, p110α/p85α
Assay type: biochemical
Items are presented alongside their recorded IC50.

[
  {
    "molecule": "Nc1ncc(-c2ccc3ncc(C(=O)N4CCOCC4)n3c2)cc1C(F)(F)F",
    "IC50": "< 10 µM"
  },
  {
    "molecule": "CC(C)N1CCC(n2cnc3ccc(-c4cncc(NS(=O)(=O)c5ccc(F)cc5F)c4)cc3c2=O)CC1",
    "IC50": "< 1 µM"
  },
  {
    "molecule": "Nc1nc2cc(-c3ccc4nc(N5CCOCC5)cnc4n3)ccc2o1",
    "IC50": "> 10 µM"
  }
]

query: Kindly state the measured IC50 obtained for CN(C)CC(=O)N1CCN(c2cnc3ccc(-c4ccc5oc(N)nc5c4)cc3n2)CC1 [drawing 329] with PI3K α (Homo sapiens (Human), UniProt P42336).
result: < 0.1 µM

query: IC50 of `CN1CCC(Oc2ncnc3ccc(-c4ccc5oc(N)nc5c4)cc23)CC1` on PI3K α (Homo sapiens (Human), UniProt P42336)?
result: < 0.1 µM
